- TESTED_ON: transketolase (TK) in colon carcinoma HCT116 cells (Homo sapiens, UniProt P29401)
- Construct: endogenous in cells
- Sequence (P29401 whole entry): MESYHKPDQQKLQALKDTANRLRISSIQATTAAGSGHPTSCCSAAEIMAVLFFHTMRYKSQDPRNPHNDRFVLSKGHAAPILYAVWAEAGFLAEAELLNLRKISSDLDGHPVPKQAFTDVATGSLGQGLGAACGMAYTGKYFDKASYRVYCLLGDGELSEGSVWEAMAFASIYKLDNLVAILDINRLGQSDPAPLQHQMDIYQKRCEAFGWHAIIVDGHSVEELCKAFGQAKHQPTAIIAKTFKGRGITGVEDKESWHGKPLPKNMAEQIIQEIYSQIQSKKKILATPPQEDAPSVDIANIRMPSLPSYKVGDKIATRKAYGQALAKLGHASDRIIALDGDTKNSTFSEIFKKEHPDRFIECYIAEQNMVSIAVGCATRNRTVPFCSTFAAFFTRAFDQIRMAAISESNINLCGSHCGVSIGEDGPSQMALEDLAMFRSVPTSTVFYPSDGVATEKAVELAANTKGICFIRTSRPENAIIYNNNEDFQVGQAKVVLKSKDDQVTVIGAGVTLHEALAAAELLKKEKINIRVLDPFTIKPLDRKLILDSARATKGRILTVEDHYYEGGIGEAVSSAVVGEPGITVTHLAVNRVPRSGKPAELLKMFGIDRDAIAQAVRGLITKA
- PROCEDURE_DETAILS: Cellular transketolase inhibition assay in HCT116
- TEST_CONTEXT: colon carcinoma HCT116, thiamine-free DMEM, 48 h after compound treatment, TK activity in lysate
Exam item: assign rule met to entries whose IC50 is below 0.2 µM and rule not met to entries at or above 0.2 µM. Note that a value of exactly 0.2 µM receives rule not met.

{"MOLECULE": "Cc1cncc(C[n+]2csc(CCO)c2C)c1", "TESTED_ON": "transketolase (TK) in colon carcinoma HCT116 cells (Homo sapiens, UniProt P29401)", "CATEGORY": "rule not met"}

**Query** Determine whether this molecule shows IC50 lower than 0.2 µM (ties excluded): Cc1cnc(N)c(C[n+]2csc(CCO)c2C)c1
**Result** rule not met

**Query** Determine whether this molecule shows IC50 lower than 0.2 µM (ties excluded): Cc1ccc(C[n+]2csc(CCCO)c2C)c(N)n1
**Result** rule not met

**Query** Determine whether this molecule shows IC50 lower than 0.2 µM (ties excluded): Cc1ccc(C[n+]2c(C)sc(CO)c2C)c(N)n1
**Result** rule not met

**Query** Determine whether this molecule shows IC50 lower than 0.2 µM (ties excluded): CC(=O)Nc1ccc(C[n+]2csc(CCO)c2C)cc1
**Result** rule not met

**Query** Determine whether this molecule shows IC50 lower than 0.2 µM (ties excluded): Cc1c(CCO)sc[n+]1Cc1ccc(Cl)nc1N
**Result** rule met

**Query** Determine whether this molecule shows IC50 lower than 0.2 µM (ties excluded): COC(=O)CCc1sc[n+](Cc2ccc(C)nc2N)c1C
**Result** rule not met
